These data points were gathered from the kinase profiling compilation of Christmann-Franck et al. (2016).

Molecular target: SRC (human) (UniProt P12931)
Sequence (P12931 whole entry, looked up): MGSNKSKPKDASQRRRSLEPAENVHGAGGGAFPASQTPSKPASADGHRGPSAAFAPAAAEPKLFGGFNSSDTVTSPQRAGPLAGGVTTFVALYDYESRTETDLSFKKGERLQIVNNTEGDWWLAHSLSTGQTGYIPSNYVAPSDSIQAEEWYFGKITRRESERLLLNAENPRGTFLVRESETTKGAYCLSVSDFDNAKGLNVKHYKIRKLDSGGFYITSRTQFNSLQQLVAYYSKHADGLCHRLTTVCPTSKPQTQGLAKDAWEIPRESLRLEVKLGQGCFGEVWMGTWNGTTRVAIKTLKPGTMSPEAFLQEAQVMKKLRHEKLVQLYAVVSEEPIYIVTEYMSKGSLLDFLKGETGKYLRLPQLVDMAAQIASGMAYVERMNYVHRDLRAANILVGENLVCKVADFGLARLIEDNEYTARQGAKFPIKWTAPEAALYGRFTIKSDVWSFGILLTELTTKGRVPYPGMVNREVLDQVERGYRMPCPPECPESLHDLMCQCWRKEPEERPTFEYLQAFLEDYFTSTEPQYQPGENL
Test: radiometric filter-binding kinase assay
Conditions: compound 1.0 µM
measuredParameter: residual activity

Completed entries (count: 8):
compound="C=C1C(=O)OC2C1CC/C(C)=C/CCC1(C)OC21 (stereo not given)" result=110%
compound="O=C(NOCC(O)CO)c1ccc(F)c(F)c1Nc1ccc(I)cc1Cl (stereo not given)" result=124%
compound=CNc1nc(-c2ccc3c(N)n[nH]c3c2)cc(N2C[C@@H](C(=O)NC3CCCCC3)CC[C@H]2C)n1 result=95%
compound=COc1cc2ncn(-c3cc(OCc4ccccc4S(C)(=O)=O)c(C#N)s3)c2cc1OC result=57%
compound=Cn1c(=O)c2c(ncn2C)n(C)c1=O result=88%
compound=C[C@H]1CCCC(=O)CCC/C=C/c2cc(O)cc(O)c2C(=O)O1 result=89%
compound=CN(C)C/C=C/C(=O)Nc1cccc(C(=O)Nc2ccc(Nc3nccc(-c4cccnc4)n3)cc2)c1 result=72%
compound="CC1=C(CO)C(=O)O[C@@H]([C@@H](C)[C@H]2CC[C@H]3[C@@H]4C[C@H]5O[C@]56[C@@H](O)C=CC(=O)[C@]6(C)C4CC[C@]23C)C1 (stereo not given in full)" result=113%

Summary for this compound, Cc1cccc(-c2nn(C(=S)Nc3ccccc3)cc2-c2ccnc3ccccc23)n1 : residual activity is 75%

residual activity for O=C1Nc2nc(-c3c(O)cccc3OCC3CC3)cc(C3CCCNC3)c2CO1 (stereo not given) is 91%
